experiment: gradient 5% acetonitrile 3 min, to 50% in 2 min, to 85% in 15 min, held 3 min, 100 µL/min; details: column: Zorbax Extend-C18 2.1 x 50 mm; eluents: water / acetonitrile, 0.1% formic acid
readout: RP-LC retention time (s)

> print(dat)
                                    compound  measure.unit  observed.measurement
 1     O=S(=O)(NCCc1noc(-c2ccccc2)n1)c1cccs1             s                   849
 2     Cn1cccc1C(=O)N1CCc2nn(CC#N)c(=O)n2CC1             s                   622
 3  Cc1ccc(S(=O)(=O)Nc2ccc3c(c2)CCC(=O)N3C)cc1Cl             s                  1000
 4  Cc1ccc(S(=O)(=O)N2CCOCC2)cc1-c1nnc(-c2ccccc2Cl)o1             s                   951
 5  CCOc1ccc(S(=O)(=O)N2CCCC(C(=O)NCc3cccnc3)C2)cc1C (stereo not drawn)             s                   685
 6  Cn1cc(-c2cc3n(n2)CCCN3C(=O)CCC(=O)NCc2ccccn2)c2ccccc21             s                   629
 7  O=C(Cc1cn(Cc2ccc(F)cc2)c2ccccc12)N1CCN(C(=O)c2ccco2)CC1             s                   803
 8  COCCN1C(=O)CCc2cc(NS(=O)(=O)c3ccc(Cl)cc3)ccc21             s                   771
 9  CCS(=O)(=O)N1CC(=O)N(c2ccc(F)cc2)C(C)(C(=O)NCc2ccccc2)C1 (stereo not drawn)             s                   778
10  O=C(Cc1nnc(-c2cnccn2)o1)Nc1cccc(C(F)(F)F)c1             s                   780
11  CC(=O)c1ccc(NC(=O)COc2cc(C)nc(-c3ccc(F)cc3)n2)cc1             s                   938
12  O=C(CSc1ccc(N2CCCC(C(=O)NC3CC3)C2)nn1)NCc1ccc(C(F)(F)F)cc1 (stereo not drawn)             s                   694
13  CCc1noc(NC(C)=O)c1-c1ccc(C)c(S(=O)(=O)N2CCN(c3ccc(OC)cc3)CC2)c1             s                   919
14  O=C(Nc1ccc2c(c1)OCCO2)N1C[C@@H]2CN(S(=O)(=O)c3ccccc3)C[C@H](C1)O2             s                   728
15   Cc1ccccc1OCc1nc(C2CN(C(=O)NC(C)C)C2)no1             s                   804
16    O=C(NCc1cccs1)C1CCN(c2cnc3nccnc3c2)CC1             s                   632
17  COC(=O)c1cnc2nc(C)ccc2c1Nc1ccc(S(N)(=O)=O)cc1             s                   586
18  CCCCNC(=O)C1CCCN(C(=O)c2[nH]c(C)cc2C)C1 (stereo not drawn)             s                   691
19  O=C1CC(c2noc(CCCc3ccccc3)n2)CN1c1ccc(F)c(Cl)c1 (stereo not drawn)             s                  1150
20  COc1ccc(C2CC(=O)N(c3ccc(C)cc3C)C(=O)C2)cc1             s                   941
21    CCCNC(=O)c1ccc(-c2ccc(N3CCSCC3)nc2)cc1             s                   666
22  O=C(C1=CCN(Cc2ccccc2)CC1)N1CCN(c2cccc(Cl)c2)CC1             s                   707
23  Cn1cc(CCN2CCN(S(=O)(=O)c3ccc(F)c(Cl)c3)CC2)c2cccnc21             s                   660
24       COc1ccccc1CNc1ncc(C(=O)O)c(C(C)C)n1             s                   898
25  O=C(NCc1ccc(F)cc1F)C1CCN(c2cc(N3CCOCC3)ncn2)CC1             s                   627
26  COC(=O)c1ccc(-c2nc3cnccn3c2Nc2ccc(C)c(Cl)c2)cc1             s                  1050
27  CCc1ccccc1NC(=O)Cn1c(=O)cc(-c2nc(C3CC3)no2)c2ccccc21             s                   990
28  COc1ccc(OC)c(NC(=O)N2CCC(N3CCN(Cc4ccc(F)cc4)C(=O)C3=O)CC2)c1             s                   773
29  O=C(NCc1ccc2c(c1)OCO2)C1CCCN(c2ncc(-c3ccc(F)cc3)cn2)C1 (stereo not drawn)             s                   998
30  CCc1nc2c(c(=O)n1CC(=O)Nc1c(C)cccc1C)CN(Cc1ccccc1)CC2             s                   645
31       Cn1nnnc1SCC(=O)Nc1nc2c(s1)C(=O)CCC2             s                   607
32  COc1cccc(-c2cc(=O)n3c4ccccc4n(CC(=O)NCc4ccco4)c3n2)c1             s                   864
33   CC(C)NS(=O)(=O)c1ccc(NC(=O)Cn2cncn2)cc1             s                   602
34  O=c1c2cc(-c3cccs3)nn2cnn1Cc1nc(-c2ccc(Cl)cc2)no1             s                  1150
35  Cc1cc2c(cc1S(=O)(=O)N(C)CC(=O)N1CCN(c3ccccn3)CC1)OC(C)C(=O)N2 (stereo not drawn)             s                   587
36  CCC(=O)N1CCc2cc(N3CC(C(=O)Nc4cccc(C(C)=O)c4)CC3=O)ccc21 (stereo not drawn)             s                   696
37  CCC1CCCCN1C(=O)c1cnc2nc(C)ccc2c1Nc1ccc(OC)c(OC)c1 (stereo not drawn)             s                   648
38  Cc1cc2c(=O)n(CC(=O)NCc3ccc(F)cc3Cl)ccc2s1             s                   814

----------
experiment: gradient 5% acetonitrile 3 min, to 50% in 2 min, to 85% in 15 min, held 3 min, 100 µL/min; conditions: column: Zorbax Extend-C18 2.1 x 50 mm; eluents: water / acetonitrile, 0.1% formic acid
readout: RP-LC retention time (s)

Study these solved cases before continuing.
> print(dat)
                                   compound  measure.unit  observed.measurement
1  CCc1ccc(S(=O)(=O)c2cnc(N3CCN(c4cccc(Cl)c4)CC3)nc2N)cc1             s                  1270
2  CC(=O)N1CCc2[nH]c3ccc(C(=O)Nc4ccc(N5CCOCC5)cc4)cc3c2C1             s                   654
3  Cn1cccc1CN1CCCC(COc2ccccc2C(=O)N2CCCC2)C1 (stereo not given)             s                   644
4  COc1ccc(NS(=O)(=O)c2cc(-c3[nH]ncc3C(=O)N(C)C)oc2C)cc1Cl             s                   699
5  COc1ccc(Cl)cc1S(=O)(=O)NCC1CCN(C(=O)c2ccccc2F)CC1             s                   686
6  Cc1c(C(=O)N2CCC(C(=O)NC3CCN(Cc4ccccc4)CC3)CC2)sc2nc[nH]c(=O)c12             s                   568

[I] Cc1ccccc1Nc1c(-c2cccc(O)c2)nc2cnccn12
[II] Cc1cc2nn(CC(=O)Nc3cc(F)ccc3F)c(=O)n2c(Nc2ccc(F)c(C)c2)n1
Compare I and II and name the one whose reported RP-LC retention time is smaller. Reply with the label of the item you choose.
I

[I] COc1ccc(-c2ccnc3nc(-c4cccs4)nn23)cc1
[II] Cc1ccc(Nc2nc(NCc3cccnc3)nc3[nH]ncc23)cc1
Looking at I and II , which one comes out lower in RP-LC retention time terms? State the label of the item chosen.
II
